Tested on: MS2 coat protein
Test: apparent KD of MS2 coat protein; designed switch direction (-1 OFF switch, 1 ON switch): -1; higher = weaker reporter binding
Conditions: Eterna round: R95; input ligand: FMN 200 uM
parameterMeasured: apparent KD of MS2 coat protein (nM)
Answers are plain numbers, in nM.

sequenceRecord	target	experimentalValue
GGGAUGUGAGGAUAUCGAGGUGGAAAGCACCUAACAGAAAACGAGAAGGCACAUGAGGAUCACCCAUGUAAUAC [Ditete] (puzzle: Exclusion 4)	MS2 coat protein	54.6
CAUGAUUUUCGGAAAAUGUACAUGAGGAUCACCCAUGUGACGAGUUACAUGAAAAACAAGCUUUUUGCUCGUCUUAU [Sensor v3 - Turn-off variant 1 - 11] (puzzle: Sensor v3, turn-off variant 1)	MS2 coat protein	102
AAAAUGUAAGGAUAUAGCCGGAACAAAGGGUCAAUAACCGGCUAGAAGGUACAUGAGGAUCACCCAUGUAAGAA [Excls4-V] (puzzle: Exclusion 4)	MS2 coat protein	19.4
CGAGAGCGAGGAUAUACACAACACCUCACUGUCAAGAAAGGACAUGAGGAUCACCCAUGUAGAAGGUGCAAAGC [Xecerevear] (puzzle: Exclusion 2)	MS2 coat protein	303

I'm hoping you can list apparent KD of MS2 coat protein for every sequence here, please.
1. CCGCAAAUGCAGGAUAUCGUAUCGGAUACGAUACGAGAAGGGUAUACAUGAGGAUCACCCAUGUGUCCUAGCGG [Fiskers Ex 6 - 45] (puzzle: Exclusion 6)
2. UAUUUCAUCUAUGGGAGUAACAUGAGGAUCACCCAUGUAUGUCUUGUUUUUUGUUCGUCUAAGACUUUCUGAUCAGU [JR_SV3TOV1_Sub031] (puzzle: Sensor v3, turn-off variant 1)
3. GAUUACACAAGCUUUAGGGACAUGAGGAUCACCCAUGUUCGUCUUAUUGAUCUAGGUACGCUGACGUACCUAGAUCU [JL-sv1-2.31 Brourd mod] (puzzle: Sensor v3, turn-off variant 1)
4. AAGAAACAUGAGGAUCACCCAUGUGAGGAUAUGUAAAAGAAAAGAAAAUAAAGAAGAAACAGAAGGCACAAAGG [Mat - Mod of Hog D21] (puzzle: Exclusion 1)
5. UAGGAGUCAGGAUAUGCGAGAGAUGGAAGAAAGGGAAGAGAGCAGAAGGGACAUGAGGAUCACCCAUGUAAGGA [JR_Exclu4_Sub090] (puzzle: Exclusion 4)

A:
1: 23.9; 2: 34.2; 3: 14.5; 4: 51.8; 5: 34.2

Q: Kindly state the measured apparent KD of MS2 coat protein obtained for GGUACUAACACGAUAGUGUUAGUACUAUAAGCUUGUGUUACAUGAGGAUCACCCAUGUCCUCAUAAGCUCGUCUUAU [Mat - Sensor v3 - Turn-off var 2 - D77] (puzzle: Sensor v3, turn-off variant 2) with MS2 coat protein.
A: 95.9

These entries and their values trace back to the supplement of paper PMC9170038.
